# Test Method Notes: Oral bioavailability in human
# Condition Label: in vivo, F
Quantity: bioavailability (%)
The reply should be a number in %, with the unit left off.

Solved entries (count: 3):
In [3]: df
Out[3]:
                                   compound  value_reported
0  O[C@](CCN1CCCC1)(c1ccccc1)C1CCCCC1 [(S)-PROCYCLIDINE]              75
1  COc1ccnc(C[S+]([O-])c2nc3ccc(OC(F)F)cc3[nH]2)c1OC (stereo not given) [PANTOPRAZOLE]              77
2  CCCNC1CCc2nc(N)sc2C1 (single isomer, unassigned) [PRAMIPEXOLE]              90

Give the measured bioavailability of Cc1cc2c(OC[C@@H](O)CNC(C)C)cccc2[nH]1 [(S)-MEPINDOLOL] .
82

Give the measured bioavailability of CC[C@@H](CO)NCCN[C@@H](CC)CO [ETHAMBUTOL] .
77
